Counter-ions that a name gives are not always drawn.
The compounds listed here are annotated with their melting point.
MEASUREMENT_TYPE: melting point

[[record]]
compound = "CCCCc1nc2c(N)nc3ccccc3c2n1CCOCc1ccccc1"
value = "133 to 135 °C"

[[record]]
compound = "N#Cc1ccc(COCCn2cnc3c(N)nc4ccccc4c32)cc1"
value = "238.1 to 239.2 °C"

[[record]]
compound = "COc1ccc(Cc2nc3c(N)nc4ccccc4c3n2CCOc2ccccc2)cc1"
value = "201 to 203.6 °C"

[[record]]
compound = "COc1ccc(CCCOCCn2cnc3c(N)nc4ccccc4c32)cc1"
value = "116 to 118 °C"

[[record]]
compound = "Cc1cccc(C)c1C#CCOCCn1cnc2c(N)nc3ccccc3c21"
value = "200 to 201 °C"

[[record]]
compound = "Nc1nc2ccccc2c2c1ncn2CCOCCCc1ccccc1C(=O)O (as salt: trifluoroacetate)"
value = "186 to 188 °C"

[[record]]
compound = "Nc1nc2ccccc2c2c1ncn2CCOCCCc1ccc(C(=O)O)cc1 (as salt: trifluoroacetate)"
value = "235 to 237 °C"

[[record]]
compound = "Nc1nc2ccccc2c2c1nc(COc1ccccc1)n2CCOc1ccccc1"
value = "168.5 to 170 °C"

[[record]]
compound = "Nc1nc2ccccc2c2c1nc(C1CCOC1)n2CCOc1ccccc1 (stereo not drawn)"
value = "235.9 to 236.3 °C"

